The entries below are paired with their reported EC50.
tested on: Vesicular stomatitis Indiana virus; experiment: Antiviral activity against Vesicular stomatitis Indiana virus infected in human HeLa assessed as inhibition of virus-induced cytopathic effect after 2 days by MTT assay; format: functional, organism-based; conditions: 48 h

{"compound": "C=C(CC[C@@H](C)[C@H]1C[C@@H](O)[C@@H]2[C@]1(C)CC[C@@H]1[C@@]3(C)CC[C@H](O)[C@H](O)[C@@H]3[C@@H](O)C[C@]12O)C(C)CO[C@@H]1OC[C@@H](O)[C@H](OS(=O)(=O)[O-])[C@H]1O[C@@H]1OC[C@@H](O)[C@H](O)[C@H]1OC.[Na+] (some centres undefined) [CERTONARDOSIDE A]", "EC50": "> 100 µg/mL"}
{"compound": "CO[C@@H]1CO[C@@H](OCC[C@@H](CC[C@@H](C)[C@H]2[C@@H](O)[C@@H](O)[C@@H]3[C@]2(C)CC[C@@H]2[C@@]4(C)CC[C@H](O)[C@H](O)[C@@H]4[C@@H](OS(=O)(=O)[O-])C[C@]23O)C(C)C)[C@H](O)[C@H]1O.[Na+] [CERTONARDOSIDE J]", "EC50": "> 58.8 µg/mL"}
{"compound": "NC(=O)c1ncn([C@@H]2O[C@H](CO)[C@@H](O)[C@H]2O)n1 [RIBAVIRIN]", "EC50": "13.7 µg/mL"}
{"compound": "CO[C@H]1[C@H](O[C@H]2[C@H](O[C@@H](CC[C@@H](C)[C@H]3C[C@@H](O)[C@@H]4[C@]3(C)CC[C@@H]3[C@@]5(C)CC[C@H](O)[C@H](O)[C@@H]5[C@@H](OS(=O)(=O)[O-])C[C@]34O)C(C)C)O[C@H](CO)[C@@H]2O)OC[C@@H](OC)[C@@H]1O.[Na+] [CERTONARDOSIDE G]", "EC50": "> 100 µg/mL"}

====

experiment: Cytotoxicity against human MT4 cells after 5 days by MTT assay; assay type: cell-based
The entries below are paired with their reported CC50 at 120 h.

{"molecule": "C=C(CC[C@@H](C)[C@H]1C[C@@H](O)[C@@H]2[C@]1(C)CC[C@@H]1[C@@]3(C)CC[C@H](O)[C@H](O)[C@@H]3[C@@H](O)C[C@]12O)C(C)CO[C@@H]1OC[C@@H](O)[C@H](O)[C@H]1O[C@@H]1OC[C@@H](O)[C@H](O)[C@H]1OC (some centres not stated) [ACODONTASTEROSIDE G]", "CC50 at 120 h": "42.5 µg/mL"}
{"molecule": "CO[C@H]1[C@H](O[C@H]2[C@H](OC[C@@H](C)[C@H](C)/C=C/[C@@H](C)[C@H]3C[C@@H](O)[C@@H]4[C@]3(C)CC[C@@H]3[C@@]5(C)CC[C@H](O)[C@H](O)[C@@H]5[C@@H](O)C[C@]34O)OC[C@@H](O)[C@@H]2OS(=O)(=O)[O-])OC[C@@H](O)[C@@H]1O.[Na+] [CERTONARDOSIDE D]", "CC50 at 120 h": "> 100 µg/mL"}

====

assay: Cytotoxicity against human HeLa cells after 2 days by MTT assay; format: cell-based
valueKind: CC50 at 48 h (µg/mL)

{"molecule": "C=C(CC[C@@H](C)[C@H]1C[C@@H](O)[C@@H]2[C@]1(C)CC[C@@H]1[C@@]3(C)CC[C@H](O)[C@H](O)[C@@H]3[C@@H](O)C[C@]12O)C(C)CO[C@@H]1OC[C@@H](O)[C@H](OS(=O)(=O)[O-])[C@H]1O[C@@H]1OC[C@@H](O)[C@H](O)[C@H]1OC.[Na+] (some centres undefined) [CERTONARDOSIDE A]", "comparisonSymbol": ">", "measuredValue": 100}
{"molecule": "C=C(CC[C@@H](C)[C@H]1C[C@@H](O)[C@@H]2[C@]1(C)CC[C@@H]1[C@@]3(C)CC[C@H](O)[C@H](O)[C@@H]3[C@@H](O)C[C@]12O)C(C)CO[C@@H]1OC[C@@H](O)[C@H](O)[C@H]1O[C@@H]1OC[C@@H](O)[C@H](O)[C@H]1OC (some centres undefined) [ACODONTASTEROSIDE G]", "comparisonSymbol": "=", "measuredValue": 51.5}
{"molecule": "NC(=O)c1ncn([C@@H]2O[C@H](CO)[C@@H](O)[C@H]2O)n1", "comparisonSymbol": "=", "measuredValue": 300}
{"molecule": "CO[C@H]1[C@H](O[C@H]2[C@H](O[C@@H](CC[C@@H](C)[C@H]3C[C@@H](O)[C@@H]4[C@]3(C)CC[C@@H]3[C@@]5(C)CC[C@H](O)[C@H](O)[C@@H]5[C@@H](O)C[C@]34O)C(C)C)O[C@H](CO)[C@@H]2O)OC[C@@H](OC)[C@@H]1O [CERTONARDOSIDE F]", "comparisonSymbol": "=", "measuredValue": 64.8}

====

experiment: Cytotoxicity against african green monkey Vero cells after 3 days by MTT assay; format: cell-based; details: chlorocebus sabaeus

{"compound": "C=C(CC[C@@H](C)[C@H]1C[C@@H](O)[C@@H]2[C@]1(C)CC[C@@H]1[C@@]3(C)CC[C@H](O)[C@H](O)[C@@H]3[C@@H](O)C[C@]12O)C(C)CO[C@@H]1OC[C@@H](O)[C@H](O)[C@H]1O[C@@H]1OC[C@@H](O)[C@H](O)[C@H]1OC (some centres not stated) [ACODONTASTEROSIDE G]", "comparisonSymbol": ">", "CC50 at 72 h, mg/L": 100}
{"compound": "CO[C@H]1[C@H](O[C@H]2[C@H](OC[C@@H](C)[C@H](C)/C=C/[C@@H](C)[C@H]3C[C@@H](O)[C@@H]4[C@]3(C)CC[C@@H]3[C@@]5(C)CC[C@H](O)[C@H](O)[C@@H]5[C@@H](O)C[C@]34O)OC[C@@H](O)[C@@H]2OS(=O)(=O)[O-])OC[C@@H](O)[C@@H]1O.[Na+] [CERTONARDOSIDE D]", "comparisonSymbol": "=", "CC50 at 72 h, mg/L": 79.9}

====

The entries below are paired with their reported CC50 at 72 h.
assay: Cytotoxicity against african green monkey Vero cells after 3 days by MTT assay; format: cell-based; conditions: chlorocebus sabaeus
valueKind: CC50 at 72 h

{"molecule": "CO[C@@H]1CO[C@@H](OCC[C@@H](CC[C@@H](C)[C@H]2[C@@H](O)[C@@H](O)[C@@H]3[C@]2(C)CC[C@@H]2[C@@]4(C)CC[C@H](O)[C@H](O)[C@@H]4[C@@H](OS(=O)(=O)[O-])C[C@]23O)C(C)C)[C@H](O)[C@H]1O.[Na+] [CERTONARDOSIDE J]", "measuredValue": "> 100 µg/mL"}
{"molecule": "C=C(CC[C@@H](C)[C@H]1C[C@@H](O)[C@@H]2[C@]1(C)CC[C@@H]1[C@@]3(C)CC[C@H](O)C[C@@H]3[C@@H](O)C[C@]12O)C(C)CO[C@@H]1OC[C@@H](O)[C@H](OS(=O)(=O)[O-])[C@H]1O[C@@H]1OC[C@@H](O)[C@H](O)[C@H]1OC.[Na+] (some centres undefined) [CERTONARDOSIDE C]", "measuredValue": "97.5 µg/mL"}
{"molecule": "Nc1ccn([C@@H]2O[C@H](CO)[C@@H](O)[C@@H]2O)c(=O)n1", "measuredValue": "4.8 µg/mL"}
{"molecule": "CO[C@H]1[C@H](O[C@H]2[C@H](O[C@@H](CC[C@@H](C)[C@H]3C[C@@H](O)[C@H]4[C@@H]5C[C@H](O)[C@H]6[C@@H](O)[C@@H](O)CC[C@]6(C)[C@H]5CC[C@@]43C)C(C)C)O[C@H](CO)[C@@H]2O)OC[C@@H](OC)[C@@H]1O [CERTONARDOSIDE I]", "measuredValue": "> 100 µg/mL"}
{"molecule": "Nc1nc2c(ncn2COCCO)c(=O)[nH]1", "measuredValue": "> 10 µg/mL"}
{"molecule": "CO[C@@H]1CO[C@@H](OCC[C@@H](CC[C@@H](C)[C@H]2[C@@H](O)[C@@H](O)[C@H]3[C@@H]4C[C@H](OS(=O)(=O)[O-])[C@H]5[C@@H](O)[C@@H](O)CC[C@]5(C)[C@H]4CC[C@]23C)C(C)C)[C@H](O)[C@H]1O.[Na+] [CERTONARDOSIDE K]", "measuredValue": "> 100 µg/mL"}
{"molecule": "C=C(CC[C@@H](C)[C@H]1C[C@@H](O)[C@@H]2[C@]1(C)CC[C@@H]1[C@@]3(C)CC[C@H](O)[C@H](O)[C@@H]3[C@@H](O)C[C@]12O)C(C)CO[C@@H]1OC[C@@H](O)[C@H](OS(=O)(=O)[O-])[C@H]1O[C@@H]1OC[C@@H](O)[C@H](O)[C@H]1OC.[Na+] (some centres undefined) [CERTONARDOSIDE A]", "measuredValue": "> 100 µg/mL"}
{"molecule": "CO[C@H]1[C@H](O[C@H]2[C@H](O[C@@H](CC[C@@H](C)[C@H]3C[C@@H](O)[C@@H]4[C@]3(C)CC[C@@H]3[C@@]5(C)CC[C@H](O)[C@H](O)[C@@H]5[C@@H](OS(=O)(=O)[O-])C[C@]34O)C(C)C)O[C@H](CO)[C@@H]2O)OC[C@@H](OC)[C@@H]1O.[Na+] [CERTONARDOSIDE G]", "measuredValue": "> 100 µg/mL"}
{"molecule": "CO[C@H]1[C@H](O[C@H]2[C@H](O[C@@H](CC[C@@H](C)[C@H]3C[C@@H](O)[C@@H]4[C@]3(C)CC[C@@H]3[C@@]5(C)CC[C@H](O)[C@H](O)[C@@H]5[C@@H](O)C[C@]34O)C(C)C)O[C@H](CO)[C@@H]2O)OC[C@@H](OC)[C@@H]1O [CERTONARDOSIDE F]", "measuredValue": "> 100 µg/mL"}
